# EXPERIMENT_NOTES: Plasma protein binding by rapid equilibrium dialysis (RED)
# Format: in vitro ADME
# TEST_SETTINGS: human; peptide 10 μM, C3-depleted serum with 5 μM purified C3, 24 h, 37° C.; read-out: C3-positive serum % bound (converted)
MEASUREMENT_LABEL: fraction unbound at 24 h, 10 μM

Entry under review: `CC[C@H](C)[C@H](NC(=O)CCCCCOP(=O)(O)OC1CCC(c2ccccc2)(c2ccccc2)CC1)C(=O)N[C@H]1CSSC[C@@H](C(=O)N(C)[C@H](C(N)=O)[C@@H](C)CC)NC(=O)[C@H](CCCNC(=N)N)NC(=O)[C@H](Cc2c[nH]cn2)NC(=O)[C@H](C)NC(=O)CN(C)C(=O)[C@H](Cc2c[nH]c3ccccc23)NC(=O)[C@H](CC(=O)O)NC(=O)[C@H](CCC(N)=O)NC(=O)[C@H](Cc2cn(C)c3ccccc23)NC(=O)[C@H](C(C)C)NC1=O` . Reported fraction unbound at 24 h, 10 μM?
< 0.01

I am curious: what fraction unbound at 24 h, 10 μM value has been reported for CC[C@H](C)[C@H](NC(C)=O)C(=O)N[C@H]1CSSC[C@@H](C(=O)N(C)[C@H](C(N)=O)[C@@H](C)CC)NC(=O)[C@H](CCCNC(=N)N)NC(=O)[C@H](Cc2c[nH]cn2)NC(=O)[C@H](C)NC(=O)CN(C)C(=O)[C@H](Cc2c[nH]c3ccccc23)NC(=O)[C@H](CC(=O)O)NC(=O)[C@H](CCC(N)=O)NC(=O)[C@H](Cc2cn(C)c3ccccc23)NC(=O)[C@H](C(C)C)NC1=O [Cp20, reference compound] ?
0.16

----------
# EXPERIMENT_NOTES: Plasma protein binding by rapid equilibrium dialysis (RED)
# Assay type: in vitro ADME
# TEST_SETTINGS: human; peptide 10 μM, C3-depleted serum, 24 h, 37° C.; read-out: C3-depleted serum % bound (converted)
MEASUREMENT_LABEL: fraction unbound at 24 h, 10 μM
Please respond with just the number, no unit label.

May I ask what fraction unbound at 24 h, 10 μM has been recorded for CC[C@H](C)[C@H](NC(C)=O)C(=O)N[C@H]1CSSC[C@@H](C(=O)N(C)[C@H](C(N)=O)[C@@H](C)CC)NC(=O)[C@H](CCCNC(=N)N)NC(=O)[C@H](Cc2c[nH]cn2)NC(=O)[C@H](C)NC(=O)CN(C)C(=O)[C@H](Cc2c[nH]c3ccccc23)NC(=O)[C@H](CC(=O)O)NC(=O)[C@H](CCC(N)=O)NC(=O)[C@H](Cc2cn(C)c3ccccc23)NC(=O)[C@H](C(C)C)NC1=O [Cp20, reference compound] ?
0.97

----------
# EXPERIMENT_NOTES: Plasma protein binding by rapid equilibrium dialysis (RED)
# Format: in vitro ADME
# TEST_SETTINGS: human; peptide 5 μM, C3-depleted serum with 5 μM purified C3, 24 h, 37° C.; read-out: C3-positive serum % bound
MEASUREMENT_LABEL: fraction unbound at 24 h, 5 μM

fraction unbound at 24 h, 5 μM for CC[C@H](C)[C@H](NC(C)=O)C(=O)N[C@H]1CSSC[C@@H](C(=O)N(C)[C@H](C(N)=O)[C@@H](C)CC)NC(=O)[C@H](CCCNC(=N)N)NC(=O)[C@H](Cc2c[nH]cn2)NC(=O)[C@H](C)NC(=O)CN(C)C(=O)[C@H](Cc2c[nH]c3ccccc23)NC(=O)[C@H](CC(=O)O)NC(=O)[C@H](CCC(N)=O)NC(=O)[C@H](Cc2cn(C)c3ccccc23)NC(=O)[C@H](C(C)C)NC1=O [Cp20, reference compound] ?
< 0.01

Could you tell me which fraction unbound at 24 h, 5 μM is on file for `CC[C@H](C)[C@H](NC(=O)CCCCCOP(=O)(O)OC1CCC(c2ccccc2)(c2ccccc2)CC1)C(=O)N[C@H]1CSSC[C@@H](C(=O)N(C)[C@H](C(N)=O)[C@@H](C)CC)NC(=O)[C@H](CCCNC(=N)N)NC(=O)[C@H](Cc2c[nH]cn2)NC(=O)[C@H](C)NC(=O)CN(C)C(=O)[C@H](Cc2c[nH]c3ccccc23)NC(=O)[C@H](CC(=O)O)NC(=O)[C@H](CCC(N)=O)NC(=O)[C@H](Cc2cn(C)c3ccccc23)NC(=O)[C@H](C(C)C)NC1=O` ?
< 0.01
